# Test system: CEM cells HIV-1 protection, formazan growth assay
# Experiment Notes: NCI AIDS Antiviral Assay
# Experimental Setup: measured here: growth of uninfected CEM cells
pIC50: −log10 of the molar value.
Please mark rule met if the recorded pIC50 is equal to or greater than 4, and rule not met if it falls below.

molecule=O=C1OCCOCCOCCOCCOC(=O)c2cccc1c2 qualitative_label="rule not met"

# input Form field: pIC50 at least 4? Entry: O=C(Cc1ccccc1)NN1C(=O)/C(=C\c2ccccc2O)SC1=Nc1ccccc1
# output rule not met

# input Request: Cc1ccc(S(=O)(=O)NNC(=O)c2cc(C(=O)NNS(=O)(=O)c3ccc(C)cc3)c(C)nc2C)cc1
# output rule not met

# input Also, CN1CCN(C(=O)CCNC(=O)Cc2ccc(C(=O)c3ccccc3)cc2)CC1 please.
# output rule met

# input Then CC(=O)N1CCN(C23OC4(N5CCN(C(C)=O)CC5)C5C6CC(C7C6C4C72)C53)CC1 (stereo unspecified) ?
# output rule not met

# input And the next one, Cc1ccc2c(c1)C1(SC(C)C(=O)N1c1ccc(I)cc1)C(=O)N2 (stereo unspecified) ?
# output rule met

###

# Tested on: CEM cells HIV-1 protection, formazan growth assay
# Experiment Notes: NCI AIDS Antiviral Assay
# Experimental Setup: measured here: growth of uninfected CEM cells
Assay Metric: IC50 (µM)
Please reply with the bare figure in µM and do not write the unit itself.

compound=COc1ccc(OC)c(CCc2ccccc2CC(=O)O)c1 tested_on="CEM cells HIV-1 protection, formazan growth assay" result_value=501
compound=CN1C/C(=C\c2cccs2)C(=O)/C(=C/c2cccs2)C1 tested_on="CEM cells HIV-1 protection, formazan growth assay" result_value=14.1
compound=C=CC(C)(C)n1cc(C2=C(O)C(=O)C(c3c(CC=C(C)C)[nH]c4ccccc34)=C(O)C2=O)c2ccccc21 tested_on="CEM cells HIV-1 protection, formazan growth assay" result_value=2.57
compound=CCOC(=O)c1cc(-c2ccccn2)c(=O)n2ccccc12 tested_on="CEM cells HIV-1 protection, formazan growth assay" result_value=49
compound=O=C(Nc1ccc(S(=O)(=O)c2ccc(NC(=O)c3ccc(N=Nc4cc(S(=O)(=O)O)c5cccnc5c4O)cc3S(=O)(=O)O)cc2)cc1)c1ccc(N=Nc2cc(S(=O)(=O)O)c3cccnc3c2O)cc1S(=O)(=O)O tested_on="CEM cells HIV-1 protection, formazan growth assay" result_value=93.3
compound=CCN(CC)CCN.O=c1cccccc1[O-].O=c1cccccc1[O-].[Co+3].[O-][Cl+3]([O-])([O-])[O-] tested_on="CEM cells HIV-1 protection, formazan growth assay" result_value=2.24

Now consider a different compound.
# input Form field: reported IC50 of CSc1nnc2n1-c1ccccc1SCC2
# output 389

###

# System: CEM cells HIV-1 protection, formazan growth assay
# Experiment Notes: NCI AIDS Antiviral Assay;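 active = compounds giving half or more protection of infected cells from virus-caused growth loss, again on retest; inactive = the rest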
Your response should consist of one outcome taken from active, inactive

A selection of reference data follows.
molecule=O=C(NNC(=S)Nc1ccc(Br)cc1)c1cc(-c2ccccc2)nc2ccccc12 qualitative_label=inactive
molecule=CC(=O)c1sc(Nc2ccc(S(=O)(=O)Nc3nc(C)cc(C)n3)cc2)nc1C qualitative_label=inactive
molecule=CCN(CC)c1ccc(N=Nc2ccc(N=Nc3c(S(=O)(=O)O)cc4ccc(N)cc4c3O)c(OCCO)c2)cc1 qualitative_label=inactive

# input Can you look up the reported call for c1ccc2c3c([nH]c2c1)C1(CCCCC1)c1c([nH]c2ccccc12)C31CCCCC1 for me?
# output inactive

# input Record: Cc1sccc1C(=S)Nc1ccc(Cl)c(/C=N/OC(C)(C)C)c1
# output active

# input And what about the molecule COc1ccc(C2OC(c3ccncc3)=NN2C)cc1OC (configuration not stated) ?
# output inactive

Reference source for all entries: PubChem BioAssay AID179
